B1: tRNA (parent)
chain: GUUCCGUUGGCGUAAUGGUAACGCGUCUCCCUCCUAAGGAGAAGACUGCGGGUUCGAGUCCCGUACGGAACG

Variants of: B1
Assay: yeast fitness relative to wild type (ratio to wild type); higher = fitter; tRNA-Arg(CCU), competitive growth, 37 C, YPD
Variants at the floor of the assay were thinned out.
Decision: yeast fitness compared against 0.6; not below it gives satisfied, below it gives not satisfied.

INPUT: Is the recorded value of yeast fitness equal to or greater than 0.6 for this variant? GUUGGGUUGGCGUAAUGGUAACGCGUCUACCUCUUAAGGAGUAGACUGCCGGUUCGAGUCCCGUACGCGACG [C4G C5G C29A C34U A42U G50C G68C A69G]
OUTPUT: not satisfied

INPUT: Is the recorded value of yeast fitness equal to or greater than 0.6 for this variant? GUUCCGUUGGCGUAAUGGUACCGUGUCUCCCACCUAAGGAGAAGACUGCGGGUUCGAGUCCGAUACGGAACG [A21C C24U U32A C62G G63A]
OUTPUT: not satisfied

INPUT: Is the recorded value of yeast fitness equal to or greater than 0.6 for this variant? GGUUCGUUGGCGUAAUGGUAACGCGUCUCCCUCCUAAGGAGAAGACUGCGGGUUCAAGUCAUGUUCGGCACG [U2G C4U G56A C61A C62U A65U A69C]
OUTPUT: not satisfied

INPUT: Is the recorded value of yeast fitness equal to or greater than 0.6 for this variant? GUUCCGUUGGCGUAAUGGUAACGCGUUUCCCCCCUAAGGAGAAGACUGCGGGUUCGAGUCCCGUACGGAACG [C27U U32C]
OUTPUT: satisfied

INPUT: Is the recorded value of yeast fitness equal to or greater than 0.6 for this variant? GUUCCGUUCGCGGAAUGGUAACGCGUCUCCCUCCUAACGAGAAGGCUGCGGGUUCGAGUCCGGUACGGAACG [G9C U13G G38C A45G C62G]
OUTPUT: not satisfied

INPUT: Is the recorded value of yeast fitness equal to or greater than 0.6 for this variant? GUUCCCUUGGCGUAAUGGUAACGCGUCUCCCUCCUAAGGAGAAGACUGCGCGUUCGAGUCCCGUACGCAACG [G6C G51C G68C]
OUTPUT: not satisfied

INPUT: Is the recorded value of yeast fitness equal to or greater than 0.6 for this variant? GUUCCGUUGGCGUAAUCGUCACGCGUCUCCCUCAUAAGGAGAAGACAGCGGGUUCGUGUCCCGUACGGAACG [G17C A20C C34A U47A A57U]
OUTPUT: not satisfied

INPUT: Is the recorded value of yeast fitness equal to or greater than 0.6 for this variant? GUUCCGUUGGCGUAAGGGUAACCCGUCUCCCUCCCAAGGAGAAGACUGCGGGUUCGAGUCCCAUACGGAACG [U16G G23C U35C G63A]
OUTPUT: not satisfied

INPUT: Is the recorded value of yeast fitness equal to or greater than 0.6 for this variant? GUUCCGAUGGCGUAAUGGUAACGCGUCUCCCUCCUAAGGAGAUGACUGCGGGUUCGAGUCCCGUACGGAACG [U7A A43U]
OUTPUT: satisfied

INPUT: Is the recorded value of yeast fitness equal to or greater than 0.6 for this variant? GUUCCGUUGGCGUAAUGGUAACGCGUCUCCCUCCUAAGGGACGAACUGCGGGUUCGAGUCCCGUACGGAUCG [A40G G41A A42C A43G G44A A70U]
OUTPUT: not satisfied

INPUT: Is the recorded value of yeast fitness equal to or greater than 0.6 for this variant? GUUCCGUUGGCGUAAUGGUAACGCGUUUCCCUCCUAAGGAGAAGACUGCGCGUUAGAGUACCGUACGGAACG [C27U G51C C55A C60A]
OUTPUT: not satisfied

INPUT: Is the recorded value of yeast fitness equal to or greater than 0.6 for this variant? GUUCCGUUGGCGUAAUGGUAACGCGUCUCGCUUCUAAGGAGAAGACUGUGGGUUCAAGUCCCGUACGGAACG [C30G C33U C49U G56A]
OUTPUT: not satisfied

INPUT: Is the recorded value of yeast fitness equal to or greater than 0.6 for this variant? GUUCCGUUGGCGUAAUGGUAACGCGUCUCCCUCCUAAGGGGAAGACUGCGGGUUUGAGUCCCGUACGGAACG [A40G C55U]
OUTPUT: satisfied

INPUT: Is the recorded value of yeast fitness equal to or greater than 0.6 for this variant? GUUCCGUUGGCGUAAUGGUAACGUGUCUCCCUCCUAAGGAGAAGACUGCGGGUUAAAGUCCCGUACGGAACG [C24U C55A G56A]
OUTPUT: not satisfied

INPUT: Is the recorded value of yeast fitness equal to or greater than 0.6 for this variant? GUUCCGUUGGCGUAAUGGUAAGGCGUGUCCCUCCUAGAGAGAAGACUGCGGGUUCGAGUCCCGUACGGAACG [C22G C27G A37G G38A]
OUTPUT: not satisfied

INPUT: Is the recorded value of yeast fitness equal to or greater than 0.6 for this variant? GGUUCGUUGGCGUAAUGGUAACGCGUCUCCCUCGUAAGGAGAAGACUGCGGGUUCGAGUCCCGUACGGAACG [U2G C4U C34G]
OUTPUT: not satisfied

INPUT: Is the recorded value of yeast fitness equal to or greater than 0.6 for this variant? GUUCCGUUGGCGUUAUGGUAACGCGUCUCCCUCCUUAGGAGAAGACUGCGGGUUCGAGUCCGGUACGGAACG [A14U A36U C62G]
OUTPUT: not satisfied

INPUT: Is the recorded value of yeast fitness equal to or greater than 0.6 for this variant? GCUCCGUUGGCGUAAUGGUAACGCGUCUCCCUCCUAAGGAGAAGACUGCGGGUUCGAGUCGCGUUCGGAACG [U2C C61G A65U]
OUTPUT: not satisfied

INPUT: Is the recorded value of yeast fitness equal to or greater than 0.6 for this variant? GUUCCGUUGGCGUAAUGGUAACAUGUCUCCCUCCUAAGGAGAAGACUGCGGGUUCGAGUCUCGUACGGAACG [G23A C24U C61U]
OUTPUT: satisfied

INPUT: Is the recorded value of yeast fitness equal to or greater than 0.6 for this variant? GUUCCGUUGGCGUAAUGGAAACGCGUCUCCCUCCUAAGGAGAAGAUUGCGGGUUCGCGUCCCGUACGGACCG [U19A C46U A57C A70C]
OUTPUT: not satisfied
